Test system: MRC-5 cells
assay.summary: Effect of carnosine derivatives on cell growth / toxicity in MRC-5 cell cultures
Assay type: cell-based, human
assay.conditions: 5 mM; MRC-5 cells; scale 0 toxic to 10 confluent
Would you mind telling me the reported Effect on cell growth (score) of each entry?

Form: compound = COC(=O)C(Cc1cnc[nH]1)NC(=O)CCNC(C)=O (stereo not drawn) ; Effect on cell growth (score) = 5

Form: compound = CC(=O)NCCC(=O)N[C@@H](Cc1cnc[nH]1)C(=O)O ; Effect on cell growth (score) = 10

Form: compound = CCCCCCOC(=O)[C@H](Cc1c[nH]cn1)NC(=O)CCN ; Effect on cell growth (score) = 1

---

Test system: MRC-5 cells
assay.summary: Effect of carnosine derivatives on cell growth / toxicity in MRC-5 cell cultures
Format: cell-based, human
assay.conditions: 0.5 mM; MRC-5 cells; scale 0 toxic to 10 confluent
Would you mind telling me the reported Effect on cell growth (score) of each entry?
Answer using only a numeral; do not append any unit.

Summary line: CC(C)(C)C(=O)NCCC(=O)NC(Cc1cnc[nH]1)C(=O)O (centres unmarked) [N-trimethyl acetyl carnosine] , MRC-5 cells, reported Effect on cell growth (score) = 6

Summary line: COC(=O)C(Cc1cnc[nH]1)NC(=O)CCNC(C)=O (centres unmarked) [N-acetyl carnosine methyl ester] , MRC-5 cells, reported Effect on cell growth (score) = 6

Summary line: CCOC(=O)C(Cc1cnc[nH]1)NC(=O)CCNC(C)=O (centres unmarked) [N-acetyl carnosine ethyl ester] , MRC-5 cells, reported Effect on cell growth (score) = 6

Summary line: CC(=O)NCCC(=O)N[C@@H](Cc1cnc[nH]1)C(=O)O [N-acetyl carnosine] , MRC-5 cells, reported Effect on cell growth (score) = 7

Summary line: CCCCCC(=O)NCCC(=O)N[C@@H](Cc1c[nH]cn1)C(=O)O [N-hexanoyl carnosine] , MRC-5 cells, reported Effect on cell growth (score) = 6

---

Test system: MRC-5 cells
assay.summary: Effect of carnosine derivatives on cell growth / toxicity in MRC-5 cell cultures
Format: cell-based, human
assay.conditions: 5 mM; MRC-5 cells; scale 0 toxic to 10 confluent
Would you mind telling me the reported Effect on cell growth (score) of each entry?
Answer using only a numeral; do not append any unit.

Form: compound = CCOC(=O)[C@H](Cc1cnc[nH]1)NC(=O)CCN ; Effect on cell growth (score) = 5

Form: compound = CC(C)(C)C(=O)NCCC(=O)NC(Cc1cnc[nH]1)C(=O)O (stereo not shown) ; Effect on cell growth (score) = 4

Form: compound = CCCCCC(=O)NCCC(=O)N[C@@H](Cc1c[nH]cn1)C(=O)O ; Effect on cell growth (score) = 4

Form: compound = CCCCOC(=O)[C@@H](Cc1cnc[nH]1)NC(=O)CCN ; Effect on cell growth (score) = 5

Form: compound = CCOC(=O)C(Cc1cnc[nH]1)NC(=O)CCNC(C)=O (stereo not shown) ; Effect on cell growth (score) = 4

Form: compound = NCCC(=O)N[C@@H](Cc1cnc[nH]1)C(=O)O [Carnosine, β-alanyl-L-histidine, reference compound] ; Effect on cell growth (score) = 5

Form: compound = CC(C)OC(=O)[C@H](Cc1cnc[nH]1)NC(=O)CCN ; Effect on cell growth (score) = 0
